Reported Population Tubulin-Different-Phenotype (%) values for a set of compounds
# System: HEK-293T
# MEASUREMENT NOTES: Multiplex assay against HEK293T
# Type: toxicity, cell-based
# EXPERIMENTAL CONDITIONS: human, 48 h, 1 µM, compound concentration 1 uM, replicate 1
QUANTITY KIND: Population Tubulin-Different-Phenotype (%)

| COMPOUND | NUMERIC RESULT |
| --- | --- |
| O=C(CCCc1ccccc1)Nc1nc2ccccc2c(=O)s1 | 11 |
| Cc1noc(-c2ccc(-c3ccc(CC(=O)O)cc3)cc2)c1NC(=O)O[C@H](C)c1ccccc1Cl | 14 |
| CN[C@@H](C)C(=O)N[C@H](C(=O)N1CCC[C@H]1C(=O)Nc1snnc1-c1ccccc1)C1CCCCC1 | 16 |
| C[C@H](N)COC(=O)[C@@H](CCCCN)NC(=O)Cc1c(-c2ccc3ccccc3c2)[nH]c2c1ccc1ccccc12 | 13 |
| Cc1sc2c(c1C)C(c1ccc(Cl)cc1)=N[C@@H](CC(=O)NCCCCCCCCNC(=O)COc1cccc3c1C(=O)N(C1CCC(=O)NC1=O)C3=O)c1nnc(C)n1-2 (some centres undefined) | 30 |
| COc1ccccc1N1CCN(C[C@@H](C(=O)NC(C)(C)C)c2ccccc2)CC1.Cl.Cl | 18 |
| CN(C)C(=O)Cn1cc(-c2ccc(-c3cncc4ccccc34)cc2)cn1 | 25 |
| Cc1c(CC(=O)O)c2cccnc2n1Cc1ccc(S(C)(=O)=O)cc1C(F)(F)F | 12 |
| Br.CS(=O)(=O)Nc1c(O)ccc2c1CCCC2C1=NCCN1 (centres undefined) | 14 |
| Cc1cnc(-c2cc(N3CCN(C(=O)CCS(C)(=O)=O)CC3)ncc2Cl)c(C)c1 | 10 |
| NCCc1cn(S(=O)(=O)c2c(Cl)nc3sccn23)c2ccccc12.O=C(O)C(=O)O | 19 |
| Cl.NCCc1ccc(O)c(O)c1 [DOPAMINE HYDROCHLORIDE] | 14 |
| CCCCC1=NC2(CCCC2)C(=O)N1Cc1ccc(-c2ccccc2-c2nnn[nH]2)cc1 | 15 |
| CC(=O)Nc1cccc2c1c(Sc1ccc(Cl)cc1)c(C)n2CC(=O)O | 10 |
| CC(C)COc1ccc(CNC(=O)N(Cc2ccc(F)cc2)C2CCN(C)CC2)cc1 | 33 |
| O=C1[C@H](Cc2ccc(O)cc2)N2C(=O)CCN(C(=O)NCc3ccccc3)[C@H]2CN1Cc1cccc2ccccc12 | 26 |
| CC[C@@H](C)Nc1nc(C)nc2c(-c3ccc(OC)nc3C)c(C)nn12 | 20 |
| Cc1cccc(NC(=O)CN2CCC(c3ccccn3)CC2)c1.Cl.Cl | 21 |
| COc1cccc2c1c(NS(=O)(=O)c1ccc(Cl)s1)nn2Cc1cccc(CNC(=O)C(C)(C)O)c1 | 11 |

====

# System: U2OS
# MEASUREMENT NOTES: Multiplex assay against U2OS
# Assay type: toxicity, cell-based
# EXPERIMENTAL CONDITIONS: human, 24 h, 1 µM, compound concentration 1 uM, replicate 2

| COMPOUND | EXPERIMENTAL SYSTEM | Population Healthy Nuclei (%) |
| --- | --- | --- |
| Cl.NCCc1ccc(O)c(O)c1 [DOPAMINE HYDROCHLORIDE] | U2OS | 77% |
| CC(/C=C1\SC(=S)N(CCCC(=O)Nc2ccc(C(=O)O)c(O)c2)C1=O)=C\c1ccccc1 | U2OS | 79% |
| Cc1sc2c(c1C)C(c1ccc(Cl)cc1)=N[C@@H](CC(=O)NCCCCCCCCNC(=O)COc1cccc3c1C(=O)N(C1CCC(=O)NC1=O)C3=O)c1nnc(C)n1-2 (some centres undefined) | U2OS | 80% |
| CC(C)c1noc(N2CCC(COc3ccc(-c4ccc(S(C)(=O)=O)cc4)nc3)CC2)n1 [GSK-1292263] | U2OS | 77% |
| CCCCC(=O)N(Cc1ccc(-c2ccccc2-c2nnn[nH]2)cc1)[C@H](C(=O)O)C(C)C | U2OS | 77% |
| CC(C)COc1ccc(CNC(=O)N(Cc2ccc(F)cc2)C2CCN(C)CC2)cc1 [PIMAVANSERIN] | U2OS | 80% |
| Cc1cnc(-c2cc(N3CCN(C(=O)CCS(C)(=O)=O)CC3)ncc2Cl)c(C)c1 | U2OS | 75% |
| Br.CS(=O)(=O)Nc1c(O)ccc2c1CCCC2C1=NCCN1 (centres undefined) | U2OS | 78% |
| N#Cc1c(Oc2cccc(OS(=O)(=O)CCCC(F)(F)F)c2)cccc1C(F)(F)F | U2OS | 79% |
